This collection of values is drawn from patent US20130196935A1.

method_notes: MTS cytotoxicity assay on primary BAEC
Assay type: cell-based, bovine
measurement_context: bovine, primary bovine aortic endothelial cells (BAEC), 1 mM, read-out: Viability of BAEC cells compared to control, Ave (%)
Give viability at 48 h, 1 mM for every item shown.
Lab book: enter the figure in %, no units written.

Problem: Return reported viability at 48 h, 1 mM; argument: CC(C)CC(NC[C@@]1(O)OC[C@@H](O)[C@@H](O[C@@H]2O[C@H](CO)[C@H](O)[C@H](O)[C@H]2O)[C@@H]1O)C(=O)O (stereo in doubt) [ACT-1]
Result: 126

Problem: For O=C(O)[C@H](CC1CC1)NC[C@@]1(O)OC[C@@H](O)[C@@H](O[C@@H]2O[C@H](CO)[C@H](O)[C@H](O)[C@H]2O)[C@@H]1O [ACT-2] , what is its reported viability at 48 h, 1 mM?
Result: 132

====

Exercise: for every item that follows, state its recorded viability at 48 h, 8 mM.
method_notes: MTS cytotoxicity assay on SVR cells
Format: cell-based
measurement_context: mouse, SVR cells; 8 mM; 48 hours; MTS; read-out: Viability of SVR cells compared to control, Ave (%)
Unit % implied. Number only.

Problem: Given the compound CC(C)CC(NC[C@@]1(O)OC[C@@H](O)[C@@H](O[C@@H]2O[C@H](CO)[C@H](O)[C@H](O)[C@H]2O)[C@@H]1O)C(=O)O (stereo in doubt) , what is its reported viability at 48 h, 8 mM?
Result: 71.2

Problem: GET /values?readout=viability at 48 h, 8 mM&item= O=C(O)[C@H](CC1CC1)NC[C@@]1(O)OC[C@@H](O)[C@@H](O[C@@H]2O[C@H](CO)[C@H](O)[C@H](O)[C@H]2O)[C@@H]1O
Result: 76.1
